Just for reference, the kinase profiling compilation of Christmann-Franck et al. (2016) is where these values come from.

Molecular target: CSK (human) (UniProt P41240)
Sequence (P41240 whole entry, looked up): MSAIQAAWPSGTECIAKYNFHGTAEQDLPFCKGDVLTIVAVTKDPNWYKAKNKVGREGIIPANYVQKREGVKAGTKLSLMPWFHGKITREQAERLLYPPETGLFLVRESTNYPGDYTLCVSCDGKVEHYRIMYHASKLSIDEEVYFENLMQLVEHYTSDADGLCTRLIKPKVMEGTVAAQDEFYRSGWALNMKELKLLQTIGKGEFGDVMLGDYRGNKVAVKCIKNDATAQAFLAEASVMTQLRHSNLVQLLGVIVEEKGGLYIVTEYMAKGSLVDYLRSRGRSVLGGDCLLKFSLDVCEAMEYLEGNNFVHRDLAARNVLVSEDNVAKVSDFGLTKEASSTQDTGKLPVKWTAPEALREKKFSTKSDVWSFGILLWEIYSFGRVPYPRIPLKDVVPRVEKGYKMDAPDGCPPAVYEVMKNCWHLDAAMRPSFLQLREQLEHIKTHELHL
Assay: radiometric filter-binding kinase assay
Settings: compound 0.1 µM
result_type: residual activity (%)
Record the value in %, omitting the unit from your answer.

Some solved entries appear below for comparison.
- smiles_data: "COc1cc(O)c2c(c1)/C=C/C[C@H](O)[C@H](O)C(=O)/C=C\\C[C@H](C)OC2=O"
  result_value: 118
- smiles_data: "COc1ccc(N(C(=O)Nc2c(C)cccc2C)c2cc(Nc3ccc(N4CCN(C)CC4)cc3)ncn2)c(OC)c1"
  result_value: 101
- smiles_data: "CN1CCN(CCOc2cc(OC3CCOCC3)c3c(Nc4c(Cl)ccc5c4OCO5)ncnc3c2)CC1"
  result_value: 74
- smiles_data: "O=C(O)c1ccc(-c2c[nH]c3ncc(-c4ccccc4)cc23)cc1C1CCCC1"
  result_value: 99
- smiles_data: "CCCCCc1ccc(/C=C/[C@H](O)[C@@H](CO)NC)cc1"
  result_value: 104

Next, consider the following compound.
Data request: Which residual activity value belongs to CCn1c(-c2nonc2N)nc2cncc(CNC3CCNCC3)c21 ?
Data returned: 89
